Tested on: RAW-Dual (murine macrophage reporter line)
Assay: IRF reporter (Lucia luciferase) activity fold change vs agonist alone; higher = enhanced IRF activity
Conditions: modulator concentration 10 µM; agonist: MPLA […]

{"columns": ["MOLECULE", "IRF reporter"],
 "data": [
  ["COc1ccc(NC(=O)c2nn(-c3ccc(F)cc3)cc2OC)cc1OC", 1.13],
  ["CC(=O)Nc1nnc(S(N)(=O)=O)s1", 0.921],
  ["CC1C(C#N)=C(N)OC2=C1C(=O)CC(C)(C)C2 (stereo unspecified)", 1.47],
  ["COc1ccc(C2Nc3ccc(C(=O)c4ccccc4)cc3NC3=C2C(=O)CCC3)c(OC)c1 (stereo unspecified)", 1.58],
  ["Cc1ccccc1C(=O)N1CC(S(=O)(=O)CC(C)C)C1", 0.899],
  ["O=C(Nc1cc(C(F)(F)F)cc(C(F)(F)F)c1)c1cccc(Br)c1", 1.19],
  ["COc1ccc(N2CC(NC(=O)Nc3cccc(Cl)c3C)CC2=O)cc1OC (stereo unspecified)", 1.15],
  ["Cc1cccc(C)c1OCC(C)N.Cl (stereo unspecified)", 1.04],
  ["O=C(CCCn1c(=O)[nH]c2ccc(Br)cc2c1=O)NCC1CCCO1 (stereo unspecified)", 0.94],
  ["Cc1ccc(S(=O)(=O)N=C(Nc2ccc([N+](=O)[O-])cc2)c2ccccc2)cc1", 1.22],
  ["Nc1nc(=O)[nH]cc1F", 1.33]
]}

* * *

System: RAW-Dual (murine macrophage reporter line)
Assay: viability score (confluency relative to resting cells, overnight) (fraction); higher = more viable, active = viable (0.7 or more)
Conditions: modulator concentration 10 µM
RESULT TYPE: viability score

{"columns": ["COMPOUND", "NUMERIC VALUE"],
 "data": [
  ["OC(Cn1cncn1)(Cn1cncn1)c1ccc(F)cc1F", 0.988],
  ["COCCN1CCC(NC(=O)c2cccc3ccccc23)CC1", 0.998],
  ["Cc1ccc(-c2cc(-c3ccccc3)nc(N3CCOCC3)n2)cc1", 0.998],
  ["CCOC(=O)C(C)N(c1ccc(OC)cc1)S(C)(=O)=O (stereo unspecified)", 0.977],
  ["CCS(=O)(=O)c1ccc(-c2cccc(NC(=O)CC3CCCC3)c2)nn1", 0.999],
  ["Fc1ccc(Nc2nc(NN=Cc3ccc(Cl)cc3)nc(N3CCCCC3)n2)cc1", 1.05]
]}

* * *

System: RAW-Dual (murine macrophage reporter line)
Assay: viability score (confluency relative to resting cells, overnight) (fraction); higher = more viable, active = viable (0.7 or more)
Settings: modulator concentration 10 µM

{"columns": ["COMPOUND", "viability score"],
 "data": [
  ["Cc1ccc(Nc2ccc(NC(=O)C(C)C)cc2)nn1", "0.981 (active)"],
  ["CS(=O)(=O)N(CC(=O)NCC1CCCO1)c1ccc(Cl)c(C(F)(F)F)c1 (stereo not given)", "0.998 (active)"],
  ["COc1ccc(C2Nc3ccc(C(=O)c4ccccc4)cc3NC3=C2C(=O)CCC3)c(OC)c1 (stereo not given)", "1.01 (active)"],
  ["COc1ccc(S(=O)(=O)N(CC(=O)Nc2ccccc2F)c2ccc(C)cc2)cc1OC", "1.01 (active)"],
  ["COC(=O)C1=C(C)N(C)C(C)=C(C(=O)OC)C1c1cccc(C(F)(F)F)c1", "1.01 (active)"]
]}

* * *

System: RAW-Dual (murine macrophage reporter line)
Assay: NF-kB reporter (SEAP) activity fold change vs agonist alone; higher = enhanced NF-kB activity
Settings: modulator concentration 10 µM; agonist: CpG ODN 1826 0.5 ug/mL

{"columns": ["COMPOUND", "NF-kB reporter"],
 "data": [
  ["O=C(NCCCO)C(=O)Nc1ccccc1F", 0.815],
  ["COc1ccc(S(=O)(=O)NNc2ccc([N+](=O)[O-])cc2[N+](=O)[O-])cc1", 1.21],
  ["O=C(NC1CC2CCC1C2)c1ccccc1Cl (configuration not stated)", 0.725],
  ["Cc1ccc(S(=O)(=O)n2nnc3ccccc32)cc1C", 1.07],
  ["Br.COc1ccc2c3c1OC1CC(O)C=CC31CCN(C)C2 (configuration not stated)", 1.06],
  ["O=C(c1cc2cc(F)ccc2s1)N1CCc2ncncc2C1", 1.05],
  ["CC1(C)CC(=O)C2=C(C1)OC(N)=C(C#N)C2C1CC=CCC1 (configuration not stated)", 1.02],
  ["Cc1cc(C)nc(NC#N)n1", 0.919],
  ["Cc1cc(OCC(=O)Nc2ccccc2-c2ccccc2)ccc1Br", 0.776],
  ["CCc1c(C)[nH]c2c1C(=O)C(CN1CCOCC1)CC2.Cl (configuration not stated)", 0.108],
  ["O=C(O)CCCCCN1C(=O)c2cccc3cccc(c23)C1=O", 0.97],
  ["O=S(=O)(c1ccc(F)cc1)N1CCC(c2nc3ccccc3[nH]2)CC1", 1.19]
]}

* * *

Tested on: RAW-Dual (murine macrophage reporter line)
Assay: NF-kB reporter (SEAP) activity fold change vs agonist alone; higher = enhanced NF-kB activity
Settings: modulator concentration 10 µM; agonist: LPS 0.1 ug/mL
Lab note: class by NF-kB reporter, see 1: < 0.9; 2: ≥ 0.9 and < 1; 3: ≥ 1

{"columns": ["MOLECULE", "GROUP LABEL"],
 "data": [
  ["O=C(Nc1nc2ccc(Cl)cc2s1)c1ccc(Br)s1", 2],
  ["Oc1ccc(OCc2ccccc2)cc1", 3],
  ["COC(=O)CNC(c1ccccc1)c1cc(Br)ccc1NC(=O)c1ccccc1 (stereo not drawn)", 3],
  ["Cc1ccc(S(=O)(=O)O)cc1.NC(=O)c1cccc2cn(-c3ccc([C@@H]4CCCNC4)cc3)nc12", 1],
  ["COc1ccc(C2NN(Cc3ccccc3)C3C(=O)N(C)C(=O)C23)cc1 (stereo not drawn)", 2],
  ["O=[N+]([O-])c1ccc(-n2cccc2C=NNc2nc(N3CCOCC3)nc(N3CCOCC3)n2)cc1", 3],
  ["O=C(NC(=S)Nc1ccc2[nH]c(=O)[nH]c2c1)c1ccc(F)cc1", 3],
  ["O=C(O)CCC(=O)c1ccc(-c2ccccc2)cc1", 1],
  ["Cc1ccc(C(=O)N2N=C(c3ccncc3)CC2(O)C(F)(F)F)cc1 (stereo not drawn)", 1],
  ["CC(=O)NC(Cc1c[nH]c2ccccc12)C(=O)O (stereo not drawn)", 3],
  ["Cc1cccc(C)c1NC(=O)CC(C)c1ccccc1 (stereo not drawn)", 3]
]}

* * *

Tested on: RAW-Dual (murine macrophage reporter line)
Assay: NF-kB reporter (SEAP) activity fold change vs agonist alone; higher = enhanced NF-kB activity
Conditions: modulator concentration 10 µM; agonist: CpG ODN 1826 0.5 ug/mL

{"columns": ["COMPOUND", "NF-kB reporter"],
 "data": [
  ["CCSC1=C(C#N)C2(CCCC2)C(C#N)C(=O)N1 (stereo not given)", 1.13],
  ["COc1cc2c(cc1OC)CN(CCc1ccc(NC(=O)c3cccc4c(=O)c5cccc(OC)c5[nH]c34)cc1)CC2", 0.0904],
  ["COc1ccc(CC(N)C(=O)NC2C(CO)OC(n3cnc4c(N(C)C)ncnc43)C2O)cc1.Cl.Cl (stereo not given)", 0.817],
  ["Cc1cc(=O)nc(SCCc2ccccc2)[nH]1", 1.13],
  ["CC1CCc2cc(F)cc3c(=O)c(C(=O)O)cn1c23 (stereo not given)", 0.961],
  ["Cc1cc(C)nc(Nc2ncc(O)n2-c2ccc(F)cc2)n1", 1.11],
  ["CC(=NOCON=C(C)c1ccc(F)cc1F)c1ccc(F)cc1F", 0.843],
  ["CCOC(=O)[C@H](CCc1ccccc1)N[C@@H](C)C(=O)N1CCC[C@H]1C(=O)O.O=C(O)/C=C\\C(=O)O", 1.05],
  ["Cc1nc2ccc(Cl)cn2c(=O)c1NC(=O)c1c(F)cccc1Cl", 0.78],
  ["CCC(=O)Nc1ccc(NC(=O)c2ccco2)c(OC)c1", 0.828]
]}

* * *

Measured NF-kB reporter of individual entries
Test system: RAW-Dual (murine macrophage reporter line)
Assay: NF-kB reporter (SEAP) activity fold change vs agonist alone; higher = enhanced NF-kB activity
Conditions: modulator concentration 10 µM; agonist: LPS 0.1 ug/mL

{"columns": ["COMPOUND", "TARGET UNDER TEST", "NF-kB reporter"],
 "data": [
  ["CC(NC(=O)c1nc2ccccc2[nH]1)c1ccc(Br)cc1 (stereo not drawn)", "RAW-Dual (murine macrophage reporter line)", 0.938],
  ["O=C(c1ccc(OC(F)(F)F)cc1)N1CCC(Oc2cccnn2)CC1", "RAW-Dual (murine macrophage reporter line)", 1.25],
  ["COc1cc(C)ccc1NC(=O)Cc1csc(NC(=O)Nc2ccccc2OC)n1", "RAW-Dual (murine macrophage reporter line)", 1.02],
  ["Clc1cccc(C=Nc2ccc(N=Cc3cccc(Cl)c3Cl)cc2)c1Cl", "RAW-Dual (murine macrophage reporter line)", 1.08],
  ["Nc1ncnc2c1ncn2[C@@H]1O[C@H](CO)[C@@H](O)[C@@H]1O.O", "RAW-Dual (murine macrophage reporter line)", 1.02],
  ["COc1cc2c(Oc3ccc(NC(=O)C4(C(=O)Nc5ccc(F)cc5)CC4)cc3F)ccnc2cc1OCCCN1CCOCC1", "RAW-Dual (murine macrophage reporter line)", 0.146],
  ["COc1cc2c(cc1OC)C(=O)C(CC1CCN(Cc3ccccc3)CC1)C2.Cl (stereo not drawn)", "RAW-Dual (murine macrophage reporter line)", 0.947],
  ["CC#CCn1c(N2CCC[C@@H](N)C2)nc2c1c(=O)n(Cc1nc(C)c3ccccc3n1)c(=O)n2C", "RAW-Dual (murine macrophage reporter line)", 1.13],
  ["C#CCC(Cc1cnc2nc(N)nc(N)c2n1)c1ccc(C(=O)N[C@@H](CCC(=O)O)C(=O)O)cc1 (stereo partly drawn)", "RAW-Dual (murine macrophage reporter line)", 0.856],
  ["CC(C)(C)C(=O)NCc1cccnc1-c1cccnc1", "RAW-Dual (murine macrophage reporter line)", 1.02],
  ["OCC(S)CS (stereo not drawn)", "RAW-Dual (murine macrophage reporter line)", 0.909],
  ["O=C(NCCN1CCN(c2ccc(Cl)cc2)CC1)c1cnccn1", "RAW-Dual (murine macrophage reporter line)", 0.967],
  ["CCOc1ccccc1NC(=O)NCCc1csc(-n2nc(C)cc2C)n1", "RAW-Dual (murine macrophage reporter line)", 1.14],
  ["C1N2CN3CN1CN(C2)C3", "RAW-Dual (murine macrophage reporter line)", 1.04],
  ["CC(C)Cc1ccc(C(C)C(=O)O)cc1.NCCCC[C@H](N)C(=O)O (stereo not drawn)", "RAW-Dual (murine macrophage reporter line)", 0.97],
  ["COc1cc2nc(N3CCN(C(=O)C4COc5ccccc5O4)CC3)nc(N)c2cc1OC.CS(=O)(=O)O (stereo not drawn)", "RAW-Dual (murine macrophage reporter line)", 1.29],
  ["CN1CCN(c2ccc(-c3cccc(NC(=O)COc4ccc(Cl)cc4)c3)nn2)CC1", "RAW-Dual (murine macrophage reporter line)", 0.966],
  ["CCCCCCCC(O)CC(CC1CCCCC1)C(=O)NN (stereo not drawn)", "RAW-Dual (murine macrophage reporter line)", 0.912],
  ["Nc1nnc(C(=O)O)[nH]1", "RAW-Dual (murine macrophage reporter line)", 1.14],
  ["Cl.OC(CCN1CCCC1)(c1ccccc1)C1CCCCC1 (stereo not drawn)", "RAW-Dual (murine macrophage reporter line)", 1.13],
  ["Nc1ncn([C@H]2C[C@H](O)[C@@H](CO)O2)c(=O)n1", "RAW-Dual (murine macrophage reporter line)", 0.995],
  ["CC1CCc2c(N3CCC(O)CC3)c(F)cc3c(=O)c(C(=O)O)cn1c23 (stereo not drawn)", "RAW-Dual (murine macrophage reporter line)", 0.889],
  ["CS(=O)(=O)N(CC(=O)NCC1CCCO1)c1ccc(Cl)c(C(F)(F)F)c1 (stereo not drawn)", "RAW-Dual (murine macrophage reporter line)", 0.821]
]}
